TARGET SYSTEM: human Cereblon WT GST-tagged protein (Homo sapiens)
Construct: purchased CISBIO 64BDCRBNPEH
Sequence (Q96SW2 whole entry): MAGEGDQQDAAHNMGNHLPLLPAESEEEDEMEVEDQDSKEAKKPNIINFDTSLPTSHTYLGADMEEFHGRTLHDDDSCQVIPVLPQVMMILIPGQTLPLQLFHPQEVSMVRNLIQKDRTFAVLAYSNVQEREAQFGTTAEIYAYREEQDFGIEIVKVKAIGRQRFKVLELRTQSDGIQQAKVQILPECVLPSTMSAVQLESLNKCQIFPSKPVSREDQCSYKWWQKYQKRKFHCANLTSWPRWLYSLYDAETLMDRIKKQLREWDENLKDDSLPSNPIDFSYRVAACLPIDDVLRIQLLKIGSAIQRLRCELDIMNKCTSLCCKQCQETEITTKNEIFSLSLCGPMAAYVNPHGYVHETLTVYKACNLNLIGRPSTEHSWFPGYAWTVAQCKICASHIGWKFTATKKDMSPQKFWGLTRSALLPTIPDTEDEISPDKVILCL
ASSAY REMARKS: CRBN-binding affinity, HTRF (CEREBLON BINDING kit)
CONDITION LABEL: read-out: Inhibition Rate at 2 µM (%)
Let's look at some compounds and their measured inhibition at 2 µM.

// known answers, use as guide
O=C1CCC(N2Cc3c(CN4CC5CCC4CN5c4cccc(Cl)c4Cl)cccc3C2=S)C(=O)N1 (stereo not shown) [GT-08469]
60 to 80%
COc1cccc(N2CCN(Cc3cccc4c3CN(C3CCC(=O)NC3=O)C4=S)CC2)c1 (stereo not shown) [GT-08304]
60 to 80%
O=C1CCC(N2Cc3cc(CN4CCC(c5ccc(F)cc5)CC4)ccc3C2=S)C(=O)N1 (stereo not shown) [GT-08621]
80 to 100%
CC(C)c1cc2c(C3=CCN(Cc4cccc5c4CN(C4CCC(=O)NC4=O)C5=S)CC3)ncnc2s1 (stereo not shown) [GT-08954]
60 to 80%
O=C1CCC(N2Cc3c(CN4CCN(c5ccnc(Cl)c5F)CC4)cccc3C2=S)C(=O)N1 (stereo not shown) [GT-08732]
80 to 100%

Measured inhibition at 2 µM of O=C1CCC(N2Cc3cc(CN4CCN(c5cccnn5)CC4)ccc3C2=S)C(=O)N1 (stereo not shown) [GT-09265] : 80 to 100%

Measured inhibition at 2 µM of O=C1CCC(N2Cc3c(CN4CCC(c5ccon5)CC4)cccc3C2=S)C(=O)N1 (stereo not shown) [GT-08817] : 80 to 100%

Measured inhibition at 2 µM of O=C1CCC(N2Cc3cc(CN4CCN(c5cccs5)CC4)ccc3C2=S)C(=O)N1 (stereo not shown) [GT-08168] : 80 to 100%

Measured inhibition at 2 µM of O=C1CCC(N2Cc3cc(CN4CCN(c5cc(Cl)ccc5Cl)CC4)ccc3C2=S)C(=O)N1 (stereo not shown) [GT-08611] : 60 to 80%

Measured inhibition at 2 µM of O=C1CCC(N2Cc3c(CN4CCN(c5ccc(Cl)cc5)CC4)cccc3C2=S)C(=O)N1 (stereo not shown) [GT-08266] : 60 to 80%

Measured inhibition at 2 µM of O=C1CCC(N2Cc3c(CN4CCC(N5CCOc6cc(F)ccc65)CC4)cccc3C2=S)C(=O)N1 (stereo not shown) [GT-08852] : 80 to 100%

Measured inhibition at 2 µM of Cc1ccc(Cl)cc1N1CCN(Cc2cccc3c2CN(C2CCC(=O)NC2=O)C3=S)CC1 (stereo not shown) [GT-08505] : 60 to 80%

Measured inhibition at 2 µM of Cc1nc(N2CCN(Cc3cccc4c3CN(C3CCC(=O)NC3=O)C4=S)CC2)c2c3c(sc2n1)CCCC3 (stereo not shown) [GT-08923] : 80 to 100%
